Values compiled from patent US9120774B2.

pIC50 for assorted molecules
Tested on: SkBr3 (Her2 overexpressing breast cancer cells)
Assay: Anti-proliferation activity against SkBr3 cells (MTS/PMS)
Assay type: cell-based
Settings: Homo sapiens, SK-BR-3; Table 19, 7-oxyalkylamino and 7-oxypiperidinyl analogues; read-out: IC50, SKBr3
Description: Upon completion of synthesis of library of compounds in Examples 23 and 24, the compounds were evaluated for anti-proliferative activity against SkBr3 (Her2 overexpressing breast cancer cells), MCF-7 (estrogen receptor positive breast cancer cells), HCT-116 (colon cancer cells characterized by wild-type p53), PL45 (pancreatic cancer cells), LNCaP (androgen sensitive prostate cancer cells) and PC-3 (androgen independent prostate cancer cells) cell lines. […]
A value of pIC50 is the negative decimal logarithm of a concentration given in moles per litre.

// solved cases for pIC50 follow
[[record]]
molecule = "CC(C)=CCc1cc(C(=O)Nc2cc3ccc(OC4CCN(C)CC4)c(C)c3oc2=O)ccc1OCCN(C)C"
quantitative_readout = 6.29

[[record]]
molecule = "CNCCOc1ccc2cc(NC(=O)c3ccc(O)c(CC=C(C)C)c3)c(=O)oc2c1C [31g, KU-424]"
quantitative_readout = 5.88


# input Field request: pIC50 | item: CC(C)=CCc1cc(C(=O)Nc2cc3ccc(OC4CCN(C)CC4)c(C)c3oc2=O)ccc1OCCCN(C)C
# output 6.46
